Reference source for all entries: patent US9221761B2

# System: HCT116
# experiment.notes: FMCA (Fluorometric Microculture Cytotoxicity Assay) cytotoxicity
# Assay type: cell-based
# condition.parameters: Table 2; 72 hours of continuous compound exposure
pIC50: −log10 of the molar value.
readout.type: pIC50

{"columns": ["molecule", "tested.system", "reading"],
 "data": [
  ["CC(=O)N1CCC(=Cc2ccc(Cl)c(F)c2)C(=O)C(=Cc2ccc(Cl)c(F)c2)C1", "HCT116", 6.05],
  ["O=C1/C(=C/c2ccc(C(F)(F)F)cc2)CCN(C(=O)Cc2ccccn2)C/C1=C\\c1ccc(C(F)(F)F)cc1", "HCT116", 5.85],
  ["C=CC(=O)N1CCC(=Cc2ccc(F)cc2)C(=O)C(=Cc2ccc(F)cc2)C1 [Compound 1568]", "HCT116", 5.82],
  ["CC(=O)OCC(=O)N1CC/C(=C\\c2ccc(C(F)(F)F)cc2)C(=O)/C(=C/c2ccc(C(F)(F)F)cc2)C1", "HCT116", 5.92],
  ["C=CC(=O)N1CCC(=Cc2ccc([N+](=O)[O-])cc2)C(=O)C(=Cc2ccc([N+](=O)[O-])cc2)C1", "HCT116", 5.92],
  ["CC(=O)OCCC(=O)N1CCC(=Cc2ccc(Cl)cc2)C(=O)C(=Cc2ccc(Cl)cc2)C1", "HCT116", 5.66],
  ["O=C1C(=Cc2ccc(Cl)cc2)CCN(C(=O)Cc2ccccc2)CC1=Cc1ccc(Cl)cc1", "HCT116", 5.85],
  ["C=CC(=O)N1CCC(=Cc2ccc([N+](=O)[O-])cc2)C(=O)C(=Cc2ccc(OC)cc2)C1", "HCT116", 5.82],
  ["CC(=O)N1CCC(=Cc2ccc(F)c(Cl)c2)C(=O)C(=Cc2ccc(F)c(Cl)c2)C1", "HCT116", 6.00],
  ["CC(=O)N1CCC(=Cc2ccc([N+](=O)[O-])cc2)C(=O)C(=Cc2ccc(Cl)cc2)C1", "HCT116", 5.89],
  ["C=CC(=O)N1CCC(=Cc2ccc(F)cc2)C(=O)C(=Cc2ccc(F)cc2)C1 [Compound 1569]", "HCT116", 5.70],
  ["O=C1C(=Cc2ccc(C(F)(F)F)cc2)CCN(C(=O)Cc2cccnc2)CC1=Cc1ccc(C(F)(F)F)cc1", "HCT116", 5.57],
  ["CC(=O)OCCC(=O)N1CCC(=Cc2cc(F)c(F)c(F)c2)C(=O)C(=Cc2cc(F)c(F)c(F)c2)C1", "HCT116", 5.55],
  ["O=C1C(=Cc2ccc(Cl)c(C(F)(F)F)c2)CCN(C(=O)Cc2cccnc2)CC1=Cc1ccc(Cl)c(C(F)(F)F)c1", "HCT116", 6.00]
]}
